Numbers sourced from patent US20060204502A1.

- experimental_system: UniProtKB P08183
- Sequence (P08183 whole entry): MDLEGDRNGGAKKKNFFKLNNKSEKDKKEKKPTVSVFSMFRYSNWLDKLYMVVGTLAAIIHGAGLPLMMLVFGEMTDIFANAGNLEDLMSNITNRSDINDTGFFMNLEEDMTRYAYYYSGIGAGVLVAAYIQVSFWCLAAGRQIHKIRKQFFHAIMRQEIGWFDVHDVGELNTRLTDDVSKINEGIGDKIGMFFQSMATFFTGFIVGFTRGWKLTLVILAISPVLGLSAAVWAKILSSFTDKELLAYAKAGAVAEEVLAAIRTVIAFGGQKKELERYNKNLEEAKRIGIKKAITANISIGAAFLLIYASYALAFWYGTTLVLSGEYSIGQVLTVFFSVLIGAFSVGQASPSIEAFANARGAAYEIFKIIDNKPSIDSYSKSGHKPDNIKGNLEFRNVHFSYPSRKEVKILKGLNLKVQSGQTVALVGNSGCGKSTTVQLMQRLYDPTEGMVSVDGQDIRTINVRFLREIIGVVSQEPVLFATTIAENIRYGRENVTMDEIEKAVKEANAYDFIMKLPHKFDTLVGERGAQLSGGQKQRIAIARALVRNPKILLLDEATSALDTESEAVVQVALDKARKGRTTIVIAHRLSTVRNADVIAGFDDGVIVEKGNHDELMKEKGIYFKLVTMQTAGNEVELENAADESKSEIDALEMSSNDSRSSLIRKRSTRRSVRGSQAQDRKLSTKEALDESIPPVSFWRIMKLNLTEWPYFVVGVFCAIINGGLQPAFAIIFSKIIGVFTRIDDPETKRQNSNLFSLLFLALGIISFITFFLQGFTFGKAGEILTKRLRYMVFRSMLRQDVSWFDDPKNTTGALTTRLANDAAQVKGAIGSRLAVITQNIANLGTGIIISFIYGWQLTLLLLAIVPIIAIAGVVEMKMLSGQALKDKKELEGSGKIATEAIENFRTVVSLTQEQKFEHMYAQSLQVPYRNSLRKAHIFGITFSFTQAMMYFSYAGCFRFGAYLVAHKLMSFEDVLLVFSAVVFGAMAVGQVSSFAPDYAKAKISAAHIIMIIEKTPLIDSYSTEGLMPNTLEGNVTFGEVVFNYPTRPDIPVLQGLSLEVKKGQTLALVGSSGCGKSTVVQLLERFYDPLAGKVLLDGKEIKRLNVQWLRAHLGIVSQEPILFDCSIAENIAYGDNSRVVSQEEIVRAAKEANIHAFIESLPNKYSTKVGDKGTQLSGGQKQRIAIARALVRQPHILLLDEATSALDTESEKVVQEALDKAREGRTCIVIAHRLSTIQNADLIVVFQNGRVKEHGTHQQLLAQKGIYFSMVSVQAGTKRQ
- Type: cell-based
- condition: HeL023 cells; 10 μM
Recorded % of Rh123 Negative Cells (cells expressing P-gp activity), one value per entry.
reported_property: % of Rh123 Negative Cells (cells expressing P-gp activity) (%)

[[record]]
compound_string = "CCN(CC)c1ccc(NC(=O)Nc2nc3nn(C)cc3c3nc(-c4ccco4)nn23)cc1.Cl"
experimental_system = "UniProtKB P08183"
value_units = "%"
measured_number = 0.4

[[record]]
compound_string = "CCCCn1cc2c(nc(NC(=O)Nc3ccccc3)n3nc(-c4ccco4)nc23)n1"
experimental_system = "UniProtKB P08183"
value_units = "%"
measured_number = 1.0

[[record]]
compound_string = "CCCn1cc2c(nc(NC(=O)Nc3ccccc3)n3nc(-c4ccco4)nc23)n1"
experimental_system = "UniProtKB P08183"
value_units = "%"
measured_number = 0.8

[[record]]
compound_string = "CCCn1cc2c(nc(NC(=O)Nc3ccc(OC)cc3)n3nc(-c4ccco4)nc23)n1"
experimental_system = "UniProtKB P08183"
value_units = "%"
measured_number = 0.5

[[record]]
compound_string = "Cc1ccc(NC(=O)Nc2nc3nn(C)cc3c3nc(-c4ccco4)nn23)cc1"
experimental_system = "UniProtKB P08183"
value_units = "%"
measured_number = 22.0


====

- experimental_system: human A3 adenosine receptor (Homo sapiens, UniProt P0DMS8)
- Construct: endogenous in cells; host or cells: A375 human melanoma cells (ATCC)
- Sequence (P0DMS8 whole entry): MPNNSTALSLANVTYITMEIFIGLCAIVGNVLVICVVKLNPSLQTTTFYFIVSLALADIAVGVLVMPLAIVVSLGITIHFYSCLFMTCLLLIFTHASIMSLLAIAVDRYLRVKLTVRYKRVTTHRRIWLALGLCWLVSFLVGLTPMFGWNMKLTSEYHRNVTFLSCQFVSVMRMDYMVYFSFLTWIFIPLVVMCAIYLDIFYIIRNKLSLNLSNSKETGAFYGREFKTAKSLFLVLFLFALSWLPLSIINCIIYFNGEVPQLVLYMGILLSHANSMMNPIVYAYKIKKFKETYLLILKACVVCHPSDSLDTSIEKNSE
- assay_info: Binding affinity to A3 adenosine receptor in A375 cells
pKi: −log10 of the molar value.
reported_property: pKi

[[record]]
compound_string = "CCCCn1cc2c(nc(NC(=O)Nc3ccccc3)n3nc(-c4ccco4)nc23)n1"
experimental_system = "human A3 adenosine receptor (Homo sapiens, UniProt P0DMS8)"
measured_number = 8.64


====

- experimental_system: rat A1 Adenosine receptor (Rattus norvegicus, UniProt P25099)
- Sequence (P25099 whole entry): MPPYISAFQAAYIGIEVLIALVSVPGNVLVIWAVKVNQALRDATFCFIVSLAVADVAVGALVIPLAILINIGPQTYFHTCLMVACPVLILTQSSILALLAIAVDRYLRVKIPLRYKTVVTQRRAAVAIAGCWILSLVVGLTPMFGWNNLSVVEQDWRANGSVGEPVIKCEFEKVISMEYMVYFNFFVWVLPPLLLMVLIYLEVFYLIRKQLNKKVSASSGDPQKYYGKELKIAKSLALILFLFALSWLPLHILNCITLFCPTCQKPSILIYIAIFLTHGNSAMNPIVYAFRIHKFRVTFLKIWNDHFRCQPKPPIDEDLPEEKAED
- assay_info: Rat A1 adenosine receptor binding, [3H]-DPCPX, rat brain membranes
- condition: read-out: rA1 (Ki)
pKi: −log10 of the molar value.
reported_property: pKi

[[record]]
molecule = "CN(C)c1ccc(NC(=O)Nc2nc3nn(C)cc3c3nc(-c4ccco4)nn23)cc1 [IL-11]"
reported_property = "pKi"
result = "< 5.00"

